Hey, just so you know, these numbers are from paper PMC9760430.

- target.desc: T1, recombinant murine αvβ6 integrin (murine, UniProt P43406 31-1044; Q9Z0T9 22-708)
- T1 construct: integrin αv subunit, mouse; integrin β6 subunit, mouse; details of reagents are in the Supplemental Materials; source: bought: Bio-Techne
- assay.explanation: direct integrin binding assay (near-infrared fluorescence scan of plates); microtiter plates coated with αvβ6 or αvβ8; peptide-IRDye conjugates incubated 1 h, washed, bound fluorescence read with Odyssey CLx; EC50
- test.context: both partners purified
Bridge positions count the residues as written; N and C are the ends. Square brackets hold non-standard residues; d marks the D form. Ends that are not written are not given here. Lys(N3) = [N-]=[N+]=NCCCC[C@H](N)C(=O)O; Pra = C#CC[C@H](N)C(=O)O
property.label: pEC50
pEC50 is a log-scale quantity: -log10 of the concentration expressed in molar.

Recorded pEC50 (binder C(maleimide‑IRDye 800CW)FETLRGDLRILSILR[Pra]QNL[Lys(N3)]KELQD-NH2 (triazole 17-21) [5a-IRDye conjugate] ): 9.05
